Recorded z-score for the following compounds
Assay notes: E. coli acrAB mutant growth effects, primary screen, E. coli filamentation inducers, strain DRC39, OD650, 24 h (AID 1178);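 also: growth measured as culture turbidity by optical density at 650 nm; test concentration not given here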
Condition: higher = more signal, called active from +8 up or from −8 down

{"columns": ["Compound", "z-score"],
 "data": [
  ["COC(=O)[C@@]1(CCC(=O)OC(C)(C)C)N=C(c2ccc(OCCCO)cc2)O[C@H]1c1ccccc1N=[N+]=[N-]", 0.276],
  ["COCCOC(=O)N1C(=O)[C@@]2(c3ccccc31)[C@H](c1ccc(O)cc1)N1[C@H](c3ccccc3)[C@H](c3ccccc3)OC(=O)[C@H]1[C@@H]2C(=O)Nc1nc2ccccc2s1", 0.411],
  ["CCCC#C[Si](O[C@H](CC)c1cn(Cc2cccc(Cl)c2)nn1)(C(C)C)C(C)C", 1.11],
  ["C=CC1(C(=O)OC)CC=C(C(=O)OC)CC1 (stereo not drawn)", -0.233],
  ["Cc1ccc(S[C@]2(C(=O)NCCCN(C)C)CC(=O)N(Cc3cc(C(F)(F)F)cc(C(F)(F)F)c3)[C@@H]2c2ccc(CO)cc2)cc1", 0.0957],
  ["COC(=O)[C@@]1(Cc2ccc(OC)cc2)[C@@H]2C(=CC(=O)[C@H]2CC(=O)C(=O)N2CCCC2)CN1C(=O)c1ccccc1", -0.0187],
  ["NC(=O)NCC#Cc1ccc2c(c1)[C@]1(C(=O)N2)[C@H](c2ccccc2OCCO)N2[C@H](c3ccccc3)[C@H](c3ccccc3)OC(=O)[C@H]2[C@@H]1C(=O)Nc1nc2ccccc2s1", 0.525],
  ["CC[C@@H]1C=C(C(=O)O)[C@H](c2ccc(Br)cc2)N1S(=O)(=O)c1ccc(C)cc1", -0.593],
  ["C=CCC(OC(C)=O)[C@@H]1[C@@H](N(Cc2ccc(-c3ccccc3)cc2)C(=O)c2ccc(-c3ccccc3)cc2)c2cc(OCCCO)ccc2N1C(=O)Cc1ccc2ccccc2c1 (stereo partly drawn)", -0.433],
  ["CC(C)CNC(=O)[C@@]1(Cc2ccccc2I)c2ccccc2C(=O)N(C2CCCCC2)[C@H]1c1ccc(CO)cc1", -0.113],
  ["COCCCNC(=O)[C@@]1(C)c2ccccc2C(=O)N(C(C)C)[C@H]1c1ccc(CO)cc1", 0.32],
  ["O=C1O[C@H](c2ccccc2)[C@H](c2ccccc2)N2[C@H]1[C@@H](C(=O)N1CCCCCCC1)[C@]1(C(=O)Nc3ccc(C#CC4=CCCCC4)cc31)[C@H]2c1ccc(OCCO)cc1", 0.825],
  ["COc1ccc([Si](C)(C)[C@@H]2[C@@H](CC(=O)N3CCC[C@H]3CO)O[C@]3(C(=O)N(c4ccccc4)c4ccccc43)[C@H]2C)cc1", 0.193],
  ["CCc1cccc(NC(=O)O[C@H]2[C@H](OC(=O)Nc3ccccc3-c3ccccc3)[C@@H](OC(=O)Nc3ccccc3-c3ccccc3)[C@@H](OC)O[C@@H]2CO)c1", -1.04],
  ["CCCc1cc2c(n1Cc1cc(F)cc(F)c1)C(C)C1CN(C(=O)c3ccccc3)C(C)(C(=O)OC)C21 (stereo not drawn)", -0.522],
  ["COC(=O)[C@@]1(Cc2ccc(F)cc2)[C@H]2c3cc(C(=O)N(C)C)n(Cc4ccccc4)c3C[C@H]2CN1C(=O)c1ccccc1", -0.342],
  ["Oc1ccc2cc[n+](Cc3sc4ccccc4c3Cl)cc2c1", -0.257],
  ["CCOC(=O)C1=CC[C@@H](c2ccccc2)N(S(=O)(=O)c2ccc(C)cc2)[C@H]1c1ccccc1C", -0.502],
  ["COc1cc2c(cc1OC)CN(C(=O)[C@H]1[C@@H]3C(=O)O[C@@H](c4ccccc4)[C@@H](c4ccccc4)N3[C@@H](c3ccc(O)cc3)[C@]13C(=O)Nc1ccccc13)CC2", 0.188],
  ["COc1ccc(C#Cc2ccc3c(c2)[C@]2(C(=O)N3)[C@H](C(=O)Nc3nc4ccccc4s3)[C@H]3C(=O)O[C@H](c4ccccc4)[C@H](c4ccccc4)N3[C@@H]2c2ccc(O)cc2)cc1", 0.237],
  ["C=CCN1C(=O)[C@@]2(Cc3ccccc31)N=C(c1ccc(OCCCO)cc1)O[C@H]2c1ccccc1", 1.27],
  ["COCCOC(=O)N1C(=O)[C@@]2(c3cc(C#CCCO)ccc31)[C@H](C(N)=O)[C@H]1C(=O)O[C@H](c3ccccc3)[C@H](c3ccccc3)N1[C@@H]2c1ccc(O)cc1", 0.125],
  ["CCS[C@H]1[C@@H](C(=O)O)[C@H](c2ccc(C)cc2)N(S(=O)(=O)c2ccc(C)cc2)[C@@H]1CC", -0.419],
  ["COCCOC(=O)N1C(=O)[C@@]2(c3ccccc31)[C@H](c1ccccc1OCCO)N1[C@H](c3ccccc3)[C@H](c3ccccc3)OC(=O)[C@H]1[C@@H]2C(=O)N1CCN(c2ncccn2)CC1", -0.233],
  ["C=C(/C(=C/C[C@H](OC(C)=O)c1ccccc1OCCO)c1cnc2ccccc2c1)C(C)C", -0.672],
  ["OCCCC1=CC(c2cccs2)N(Cc2cc3c(cc2Br)OCO3)CC1 (stereo not drawn)", -0.341],
  ["O=C(c1ccccc1)N1Cc2ccccc2C[C@@]2(COC(c3ccc(OCCCO)cc3)=N2)C1=O", -0.0674],
  ["CCC[C@@H]1C[C@@]1(CCC)[C@@H](NC(=O)c1ccccc1)c1cccc(Cl)c1", -0.557]
]}
